assaySummary: Quantitative High-Throughput drug screen in 47 multiple myeloma cell lines against the NCATS MIPE library collection: KMS12PE_JCRB cell viability assay (AID 1918972); also: nearly all actives have a fitted effect of over 30% in size; also: potency is read from the fitted curve at half-maximal effect;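 as to viability: 100% = DMSO only wells and 0% = wells with media alone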
runConditions: KMS12PE myeloma viability, CellTiter-Glo ATP, 48 h; series mostly up to 45.8 µM
Records with an inconclusive call do not appear. Activity calls are given as the source filed them. Calls follow the shape of the dose curve; as a rule, active = well fitted cell-killing curve with a large enough effect; inconclusive = small, poorly fitted or top-dose-only effect, or effect the other way; inactive = no such curve, though single readings can be large or run the other way.
outcomeMeasure: Potency

Below, 5 molecules whose answers are already recorded.
{"structureSmilesString": "Nc1ncnc2c1nc(Cl)n2[C@@H]1O[C@H](CO)[C@@H](O)[C@@H]1O", "Potency": "14.8 µM (active)"}
{"structureSmilesString": "Clc1ccc(-c2nc3sccn3c2C=NOCc2ccc(Cl)c(Cl)c2)cc1", "Potency": "inactive"}
{"structureSmilesString": "CO[C@H]1C=CO[C@@]2(C)Oc3c(C)c(O)c4c(O)c(c5c(c4c3C2=O)NC2(CCN(CC(C)C)CC2)N=5)=NC(=O)C(C)=CC=C[C@H](C)[C@H](O)[C@@H](C)[C@@H](O)[C@@H](C)[C@H](OC(C)=O)[C@H]1C", "Potency": "11.8 µM (active)"}
{"structureSmilesString": "NS(=O)(=O)c1cccc2c1C(=O)c1cccc(O)c1C2=O", "Potency": "0.264 µM (active)"}
{"structureSmilesString": "COc1cc2c(cc1OC)CN(CCc1ccc(NC(=O)c3cc(OC)c(OC)cc3NC(=O)c3cnc4ccccc4c3)cc1)CC2", "Potency": "inactive"}

Quick batch: Potency for everything below.
1. Cc1cc(OCCCc2c(C(=O)O)n(Cc3cccnc3)c3c(-c4c(COc5ccc(N6CCN([S+](C)(=O)[O-])CC6)cc5)nn(C)c4C)cccc23)cc(C)c1Cl
2. CC(C)(C)OC(=O)N[C@H]1CCCCCC=C[C@@H]2C[C@@]2(C(=O)NS(=O)(=O)C2CC2)NC(=O)[C@@H]2C[C@@H](OC(=O)N3Cc4cccc(F)c4C3)CN2C1=O

A)
["6.62 µM (active)", "13.2 µM (active)"]

====

assaySummary: qHTS of pediatric cancer cell lines to identify multiple opportunities for drug repurposing: Primary screen for BT-37 cells (AID 1347094)
runConditions: BT-37 viability, CellTiter-Glo luminescence, 48 h; series mostly up to 57.3 µM
Results filed as inconclusive are left out. The source made the active and inactive calls. Calls come from the whole dose curve; as a rule, active = well fitted cell-killing curve with a large enough effect; inconclusive = small, poorly fitted or top-dose-only effect; inactive = flat fitted curve, though single readings scatter.
Mark one answer only. Choices: TRUE for active, FALSE for inactive

{"structureSmilesString": "O=c1[nH]cnc2c1ncn2[C@H]1CC[C@@H](CO)O1", "class": "FALSE"}

Q) Called result for `O=C(Nc1ccccc1-c1cn2c(CN3CCNCC3)csc2n1)c1cnc2ccccc2n1`
A) TRUE

Q) Called result for `NCCS`
A) FALSE

====

assaySummary: Quantitative High-Throughput drug screen in 47 multiple myeloma cell lines against the NCATS MIPE library collection: U266_ATCC cell viability assay (AID 1919864);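 also: 0% = media-only wells without cells and 100% = DMSO-only wells; nearly all actives have a fitted effect of over 35% in size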
runConditions: U266 myeloma viability, CellTiter-Glo ATP luminescence, 48 h; series mostly up to 45.8 µM
Inconclusive results are not listed. Calls of active or inactive are those of the source. Calls come from the whole dose curve; as a rule, active = well fitted cell-killing curve with a large enough effect; inconclusive = small, poorly fitted or top-dose-only effect, or effect the other way; inactive = no such curve, though single readings can be large or run the other way.
Mark one answer only. Choices: 1 (yes) for active, 0 (no) for inactive

Q) Called result for `O=C(OCC#CCSc1nnc(-c2cccc3ccccc23)o1)c1cc2ccccc2s1`
A) 0 (no)

====

assaySummary: qHTS of pediatric cancer cell lines to identify multiple opportunities for drug repurposing: Confirmatory screen for MG 63 (6-TG R) cells (AID 1347119); also: nearly all actives have a fitted effect of over 55% in size; also: potency is read from the fitted curve at half-maximal effect
runConditions: MG-63 (6-TG resistant) osteosarcoma viability; series mostly up to 45.9 µM
Records with an inconclusive call do not appear. Activity calls are given as the source filed them. The call rests on the fitted dose curve; in most records, active means well fitted cell-killing curve with a large enough effect; inconclusive means small, poorly fitted or top-dose-only effect, or effect the other way; inactive means no such curve, though single readings can be large or run the other way.
outcomeMeasure: Potency

{"compound": "Nc1ncnc2c1ncn2[C@@H]1O[C@@H](CO)[C@H](O)[C@H]1O", "outcomeMeasure": "Potency", "assayValue": "inactive"}
{"compound": "CC(C)(C(=O)NCC(F)(F)C(F)(F)F)C(=O)N[C@@H]1C(=O)Nc2ccccc2-c2ccccc21", "outcomeMeasure": "Potency", "assayValue": "inactive"}
{"compound": "O=C1c2ccccc2-[n+]2ccc3c([nH]c4ccccc43)c21", "outcomeMeasure": "Potency", "assayValue": "3.29 µM (active)"}
{"compound": "O=C1C(Cl)=C(NCCN2CCOCC2)C(=O)c2ncccc21", "outcomeMeasure": "Potency", "assayValue": "1.04 µM (active)"}

Quick batch: Potency for everything below.
1. CN[C@@H](C)C(=O)N[C@H]1CN(C(=O)CC(C)C)CC[C@H]2CC[C@@H](C(=O)NC(c3ccccc3)c3ccccc3)N2C1=O
2. O=C(O)c1ccc(-c2c[nH]c3ncc(-c4ccccc4)cc23)cc1C1CCCC1
3. CCCCCCCCCCCC1=C(O)C(=O)C=C(O)C1=O
4. C=C1C(=O)[C@@]23C(CC[C@@H]1[C@H]2O)[C@@]12CO[C@]3(O)[C@@H](O)[C@@H]1C(C)(C)CC[C@@H]2O (some centres undefined)

A)
1: inactive; 2: inactive; 3: inactive; 4: 10.4 µM (active)

Q) Using the record for `COc1ccc(-c2nc(N3CCOCC3)c3sc(CN(C)c4ncc(C(=O)NO)cn4)cc3n2)cn1` , report its Potency.
A) 0.928 µM (active)
